Measured On: UniProt:P34972
Sequence (P34972 whole entry): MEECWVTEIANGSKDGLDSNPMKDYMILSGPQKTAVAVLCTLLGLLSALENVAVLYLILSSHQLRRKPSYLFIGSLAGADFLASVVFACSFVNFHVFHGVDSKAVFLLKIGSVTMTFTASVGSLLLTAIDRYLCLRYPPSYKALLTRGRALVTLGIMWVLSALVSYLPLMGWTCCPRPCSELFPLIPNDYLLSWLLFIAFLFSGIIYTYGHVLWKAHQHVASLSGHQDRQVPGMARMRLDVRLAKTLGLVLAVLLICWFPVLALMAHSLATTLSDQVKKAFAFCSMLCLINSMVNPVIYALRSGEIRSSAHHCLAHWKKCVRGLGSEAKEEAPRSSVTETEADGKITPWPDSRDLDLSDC
Assay Procedure: CB2 competitive radioligand binding assay ([3H] WIN-55,212-2)
Design: expressed in transfected cells; host or cells: CHO-K1 cells
Measurement Context: Table 3, ratio of Ki CB1/CB2
Property Name: Fold Selectivity (CB1/CB2)
One number for each entry.

Worked cases, answers included:
>  <Molecular String>
CCCCCCC(C)(C)c1cc(O)c2c(c1)OC(C)(C)[C@@H]1CC=C(C(=O)N3CCNCC3)C[C@@H]21

>  <Property Name>
Fold Selectivity (CB1/CB2)

>  <Measured Value>
8.7

$$$$
>  <Molecular String>
CCCCCCC(C)(C)c1cc(O)c2c(c1)OC(C)(C)[C@@H]1CC=C(C(=O)N[C@H]3C[C@H](O)C3)C[C@@H]21

>  <Property Name>
Fold Selectivity (CB1/CB2)

>  <Measured Value>
14.3

$$$$
>  <Molecular String>
CCCCCCC(C)(C)c1cc(O)c2c(c1)OC(C)(C)[C@@H]1CC=C(C(=O)NC3(C(F)(F)F)CC3)C[C@@H]21

>  <Property Name>
Fold Selectivity (CB1/CB2)

>  <Measured Value>
4.5

$$$$

Go through the list and state Fold Selectivity (CB1/CB2) for each entry.
1. CCCCCCC(C)(C)c1cc(O)c2c(c1)OC(C)(C)[C@@H]1CC=C(C(=O)NC3CCC3)C[C@@H]21
2. CCCCCCC(C)(C)c1cc(O)c2c(c1)OC(C)(C)[C@@H]1CC=C(C(=O)N[C@@H](C)CCO)C[C@@H]21
3. CCCC(C)(C)c1cc(O)c2c(c1)OC(C)(C)[C@@H]1CC=C(C(=O)NC3CCCC3)C[C@@H]21
4. CCCCCCC(C)(C)c1cc(O)c2c(c1)OC(C)(C)[C@@H]1CC=C(C(=O)NC3CC(F)(F)C3)C[C@@H]21
5. CCCCCCC(C)(C)c1cc(O)c2c(c1)OC(C)(C)[C@@H]1CC=C(C(=O)NC3(C(F)(F)F)CCC3)C[C@@H]21
6. CCCCCCC(C)(C)c1cc(O)c2c(c1)OC(C)(C)[C@@H]1CC=C(C(=O)NC3COC3)C[C@@H]21
7. CCCCCCC(C)(C)c1cc(O)c2c(c1)OC(C)(C)[C@@H]1CC=C(C(=O)NC(C)=N)C[C@@H]21
8. CCCCCCC(C)(C)c1cc(O)c2c(c1)OC(C)(C)[C@@H]1CC=C(C(=O)N[C@H]3C[C@@H](O)C3)C[C@@H]21

# output
1: 14.0; 2: 32.0; 3: 10.8; 4: 14.4; 5: 19.2; 6: 4.0; 7: 1.5; 8: 3.9

* * *

Measured On: UniProt:P34972
Assay Procedure: CB2 competitive radioligand binding assay ([3H] WIN-55,212-2)
Set-up: expressed in transfected cells; host or cells: CHO-K1 cells
Property Name: pKi
Answers are plain numbers, as −log10 of the molar value.

Worked cases, answers included:
>  <Molecular String>
CCCCCCC(C)(C)c1cc(O)c2c(c1)OC(C)(C)[C@@H]1CC=C(C(=O)NOC)C[C@@H]21

>  <Measured Value>
8.31

$$$$
>  <Molecular String>
CCCCCCC(C)(C)c1cc(O)c2c(c1)OC(C)(C)[C@@H]1CC=C(C(=O)NC34CC5CC(CC(C5)C3)C4)C[C@@H]21

>  <Measured Value>
6.76

$$$$
>  <Molecular String>
CCCC(C)(C)c1cc(O)c2c(c1)OC(C)(C)[C@@H]1CC=C(C(=O)NC3CCCC3)C[C@@H]21

>  <Measured Value>
7.14

$$$$
>  <Molecular String>
CCCCCCC(C)(C)c1cc(O)c2c(c1)OC(C)(C)[C@@H]1CC=C(C(=O)NC3COC3)C[C@@H]21

>  <Measured Value>
8.60

$$$$
>  <Molecular String>
CCCCCCC(C)(C)c1cc(O)c2c(c1)OC(C)(C)[C@@H]1CC=C(C(=O)NC34CC5CC(CC(O)(C5)C3)C4)C[C@@H]21

>  <Measured Value>
7.12

$$$$

Now for the compound whose pKi we want.
# input Look up pKi: `CCCCCCC(C)(C)c1cc(O)c2c(c1)OC(C)(C)[C@@H]1CC=C(C(=O)NC3(C(F)(F)F)CC3)C[C@@H]21`
# output 8.70

* * *

Assay Procedure: Pharmacokinetics after PO dose in mice
Type: in vivo, Male C57BL/6 mice
Measurement Context: male, C57BL/6, mouse, in vivo; 10 mg/kg PO
What half-life was measured for each of the following?
One number for each entry, in h.

Worked cases, answers included:
>  <Compound>
CCCCCCC(C)(C)c1cc(O)c2c(c1)OC(C)(C)[C@@H]1CC=C(C(=O)O)C[C@@H]21 [AJA, reference compound]

>  <Unit Text>
h

>  <half-life>
2.19

$$$$
>  <Compound>
CCCCCCC(C)(C)c1cc(O)c2c(c1)OC(C)(C)[C@@H]1CC=C(C(=O)NC[C@@H](O)CO)C[C@@H]21 [Compound 55]

>  <Unit Text>
h

>  <half-life>
2.72

$$$$
>  <Compound>
CCCCCCC(C)(C)c1cc(O)c2c(c1)OC(C)(C)[C@@H]1CC=C(C(=O)NC(C)(C)CCO)C[C@@H]21 [Compound 15]

>  <Unit Text>
h

>  <half-life>
2.65

$$$$
>  <Compound>
CCCCCCC(C)(C)c1cc(O)c2c(c1)OC(C)(C)[C@@H]1CC=C(C(=O)OC(C)C)C[C@@H]21 [Compound 29]

>  <Unit Text>
h

>  <half-life>
4.21

$$$$

Now for the compound whose half-life we want.
# input Look up half-life: CCCCCCC(C)(C)c1cc(O)c2c(c1)OC(C)(C)[C@@H]1CC=C(C(=O)NC[C@H](O)CO)C[C@@H]21 [Compound 56]
# output 2.63

* * *

Assay Procedure: Pharmacokinetics after IV dose in mice
Measurement Context: mouse, in vivo; 1 mg/kg IV, male C57BL/6 mice
Property Name: MRT inf (h)
Answers are plain numbers, in h.

>  <Compound>
CCCCCCC(C)(C)c1cc(O)c2c(c1)OC(C)(C)[C@@H]1CC=C(C(=O)NC(C)(C)CCO)C[C@@H]21

>  <MRT inf (h)>
2.16

$$$$

Go through the list and state MRT inf for each entry.
1. CCCCCCC(C)(C)c1cc(O)c2c(c1)OC(C)(C)[C@@H]1CC=C(C(=O)O)C[C@@H]21 [AJA, reference compound]
2. CCCCCCC(C)(C)c1cc(O)c2c(c1)OC(C)(C)[C@@H]1CC=C(C(=O)OC(C)C)C[C@@H]21
3. CCCCCCC(C)(C)c1cc(O)c2c(c1)OC(C)(C)[C@@H]1CC=C(C(=O)NC[C@H](O)CO)C[C@@H]21
4. CCCCCCC(C)(C)c1cc(O)c2c(c1)OC(C)(C)[C@@H]1CC=C(C(=O)NC[C@@H](O)CO)C[C@@H]21

# output
1. 1.89
2. 1.53
3. 2.3
4. 3.38

* * *

Assay Procedure: Brain concentration and brain/plasma ratio after PO dose in mice
Assay type: in vivo
Measurement Context: mouse, brain/plasma; 10 mg/kg PO, male C57BL/6 mice, 4 h
What Kp at 4 h was measured for each of the following?
Answers are plain numbers.

>  <Molecular String>
CCCCCCC(C)(C)c1cc(O)c2c(c1)OC(C)(C)[C@@H]1CC=C(C(=O)OC(C)C)C[C@@H]21

>  <Kp at 4 h>
0.00637

$$$$

Now for the molecule whose Kp at 4 h we want.
# input Look up Kp at 4 h: `CCCCCCC(C)(C)c1cc(O)c2c(c1)OC(C)(C)[C@@H]1CC=C(C(=O)NC(C)(C)CCO)C[C@@H]21`
# output 0.139

* * *

Assay Procedure: Pharmacokinetics after PO dose in mice
Format: in vivo, Male C57BL/6 mice
Measurement Context: male, C57BL/6, mouse, in vivo; 10 mg/kg PO
Property Name: AUC(0-inf) (ng·h/mL)
Give bare numbers, in ng·h/mL.

>  <Compound>
CCCCCCC(C)(C)c1cc(O)c2c(c1)OC(C)(C)[C@@H]1CC=C(C(=O)O)C[C@@H]21 [AJA, reference compound]

>  <AUC(0-inf), ng·h/mL>
17800

$$$$
>  <Compound>
CCCCCCC(C)(C)c1cc(O)c2c(c1)OC(C)(C)[C@@H]1CC=C(C(=O)NC[C@H](O)CO)C[C@@H]21

>  <AUC(0-inf), ng·h/mL>
4430

$$$$
>  <Compound>
CCCCCCC(C)(C)c1cc(O)c2c(c1)OC(C)(C)[C@@H]1CC=C(C(=O)NC[C@@H](O)CO)C[C@@H]21

>  <AUC(0-inf), ng·h/mL>
7200

$$$$
>  <Compound>
CCCCCCC(C)(C)c1cc(O)c2c(c1)OC(C)(C)[C@@H]1CC=C(C(=O)NC(C)(C)CCO)C[C@@H]21

>  <AUC(0-inf), ng·h/mL>
5890

$$$$

Now for the compound whose AUC(0-inf) we want.
# input Look up AUC(0-inf): `CCCCCCC(C)(C)c1cc(O)c2c(c1)OC(C)(C)[C@@H]1CC=C(C(=O)OC(C)C)C[C@@H]21`
# output 1420
